# TARGET OR TEST SYSTEM: human CD33 R225A (human, UniProt P20138 18-364)
# Sequence (P20138 18-364 R225A limits assumed): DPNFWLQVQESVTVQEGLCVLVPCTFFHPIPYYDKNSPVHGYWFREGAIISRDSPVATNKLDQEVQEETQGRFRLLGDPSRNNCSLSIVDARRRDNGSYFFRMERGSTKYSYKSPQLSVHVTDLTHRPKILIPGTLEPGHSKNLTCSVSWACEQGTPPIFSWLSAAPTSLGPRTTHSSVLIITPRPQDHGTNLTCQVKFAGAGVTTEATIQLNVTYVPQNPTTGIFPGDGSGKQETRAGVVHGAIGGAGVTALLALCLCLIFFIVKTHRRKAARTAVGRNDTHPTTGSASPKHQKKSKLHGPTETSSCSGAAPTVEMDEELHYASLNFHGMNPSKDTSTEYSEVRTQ
# ASSAY COMMENT: alanine scan, flow cytometry, HEK293-T;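 also: antibody binding to each alanine-substituted CD33 mutant expressed transiently in HEK293-T, read as fluorescence minus background, mean of duplicates, relative to wild-type CD33 set as 100%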
Reported values of Mean % WT Binding for individual entries

Look over these answered cases.
Input: Provide one value: measured Mean % WT Binding of Refmab #3 (antibody, V domains shown, In the alanine scan antibodies were used as IgG or Fab) VH: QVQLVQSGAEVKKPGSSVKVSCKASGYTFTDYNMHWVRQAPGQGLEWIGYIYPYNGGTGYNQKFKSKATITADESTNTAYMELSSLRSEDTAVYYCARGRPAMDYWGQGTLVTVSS VL: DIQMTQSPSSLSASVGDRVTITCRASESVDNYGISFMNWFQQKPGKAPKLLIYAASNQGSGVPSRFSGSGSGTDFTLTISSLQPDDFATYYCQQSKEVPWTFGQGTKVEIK
Output: 98.9%

Input: Provide one value: measured Mean % WT Binding of Refmab #2 (antibody, V domains shown, In the alanine scan antibodies were used as IgG or Fab) VH: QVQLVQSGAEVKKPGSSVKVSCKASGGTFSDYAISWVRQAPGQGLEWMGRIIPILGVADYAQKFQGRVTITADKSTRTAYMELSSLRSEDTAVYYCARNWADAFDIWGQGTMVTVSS VL: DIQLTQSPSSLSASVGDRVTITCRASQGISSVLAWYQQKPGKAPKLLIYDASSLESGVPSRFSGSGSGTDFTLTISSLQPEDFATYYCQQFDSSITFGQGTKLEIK
Output: 123%

Input: Provide one value: measured Mean % WT Binding of Refmab #4 (antibody, V domains shown, In the alanine scan antibodies were used as IgG or Fab) VH: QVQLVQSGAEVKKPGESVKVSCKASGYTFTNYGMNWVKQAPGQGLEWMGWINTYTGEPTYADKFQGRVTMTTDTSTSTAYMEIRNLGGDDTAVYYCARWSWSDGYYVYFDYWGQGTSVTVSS VL: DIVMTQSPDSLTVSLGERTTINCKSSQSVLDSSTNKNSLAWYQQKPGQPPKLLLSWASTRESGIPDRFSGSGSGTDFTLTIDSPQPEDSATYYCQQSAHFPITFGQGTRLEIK
Output: 108%

As a next step, examine the binder that follows.
Input: Provide one value: measured Mean % WT Binding of Refmab #1 (antibody, V domains shown, In the alanine scan antibodies were used as IgG or Fab; also called hP67.6) VH: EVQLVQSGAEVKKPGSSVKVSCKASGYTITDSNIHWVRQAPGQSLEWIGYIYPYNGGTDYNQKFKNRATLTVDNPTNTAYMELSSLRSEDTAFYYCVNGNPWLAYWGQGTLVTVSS VL: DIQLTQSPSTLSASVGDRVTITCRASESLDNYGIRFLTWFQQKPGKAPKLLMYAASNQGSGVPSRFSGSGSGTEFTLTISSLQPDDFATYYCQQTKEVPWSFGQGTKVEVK
Output: 97.8%
